Target: T1, human VPAC2 receptor (human, UniProt P41587 24-438)
T1 sequence (looked up): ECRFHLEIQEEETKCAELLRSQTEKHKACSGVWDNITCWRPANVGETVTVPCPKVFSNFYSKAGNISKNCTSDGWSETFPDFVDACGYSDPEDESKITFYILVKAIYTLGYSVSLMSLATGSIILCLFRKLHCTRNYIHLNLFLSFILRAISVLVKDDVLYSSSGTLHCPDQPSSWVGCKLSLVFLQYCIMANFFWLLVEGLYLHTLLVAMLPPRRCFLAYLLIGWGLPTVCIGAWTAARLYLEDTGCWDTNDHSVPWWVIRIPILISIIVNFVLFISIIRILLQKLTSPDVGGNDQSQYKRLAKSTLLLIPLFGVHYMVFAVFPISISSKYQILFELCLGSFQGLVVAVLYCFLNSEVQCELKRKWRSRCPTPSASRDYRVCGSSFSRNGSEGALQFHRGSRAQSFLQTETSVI
Test: cell-based or functional assay
Where no end group is shown, it is not given here. [ ]: non-standard residue; d: D form. The star is where a group is joined. Hexanoyl = CCCCCC(=O)*; Aib = CC(C)(N)C(=O)O
readout_label: EC50 cAMP, Alpha Screen (nM)
Give just the number in nM; leave the unit off.

Before answering, review these 2 worked examples.
binder: Hexanoyl-HSDAVFTDNYTRLR[Aib]QVAAK[Aib]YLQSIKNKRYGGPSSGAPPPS (ends and bridges not checked) [P264]
EC50 cAMP, Alpha Screen [nM]: 0.1

binder: Hexanoyl-HSDAVFTDQYTRLRRQVAARKYLQSIRQGGPSSGAPPPS [P220]
EC50 cAMP, Alpha Screen [nM]: 0.12

Quick note, EC50 cAMP, Alpha Screen for Hexanoyl-HSEAVFTENYTRLR[Aib]QVAA[Aib]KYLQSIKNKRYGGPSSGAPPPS (ends and bridges not checked) [P314] landed at 0.22
